tested on: Salmonella typhi 0-901 (NCTC 8393); test: Minimum inhibitory concentration, serial dilution method on agar plate; type: cell-based; details: Salmonella enterica, read-out: Minimum Inhibitory Concentration, 1×10^6 cells/ml
In plain terms, low MIC, meaning strictly below 0.1 µg/mL, gives met, and everything else gives not met.

CC1CCc2c(N3CCOCC3)c(F)cc3c(=O)c(C(=O)O)cn1c23 (stereo not drawn)	met
CC1Cc2c(N3CCOCC3)c(F)cc3c(=O)c(C(=O)O)cn1c23 (stereo not drawn)	met
CC1CCc2c(N3CCCCC3)c(F)cc3c(=O)c(C(=O)O)cn1c23 (stereo not drawn)	not met

Query block: I'd appreciate it if you could check whether CCn1cc(C(=O)O)c(=O)c2ccc(C)nc21 [Compound 9, reference compound] has MIC smaller than 0.1 µg/mL.
Result block: not met

Query block: Say whether its MIC is strictly beneath 0.1 µg/mL. Entry: CC1CCc2c(N3CCC(O)CC3)c(F)cc3c(=O)c(C(=O)O)cn1c23 (stereo not drawn)
Result block: met

Query block: Please state whether MIC is below 0.1 µg/mL for CC1Cc2c(N3CCN(C(F)(F)F)CC3)c(F)cc3c(=O)c(C(=O)O)cn1c23.Cl (stereo not drawn)
Result block: met

Query block: Hi there! Is MIC for CC1CCc2c(N3CCC(N(C)C)CC3)c(F)cc3c(=O)c(C(=O)O)cn1c23 (stereo not drawn) below 0.1 µg/mL, do you know?
Result block: not met

* * *

test system: Proteus rettgeri NIH 96; assay: Minimum inhibitory concentration, serial dilution method on agar plate; type: cell-based; details: Providencia rettgeri, NIH96, 1×10^6 cells/ml; read-out: Minimum Inhibitory Concentration
Consider the following molecules; for each one, report its MIC.

CC1Cc2c(N3CCN(C(F)(F)F)CC3)c(F)cc3c(=O)c(C(=O)O)cn1c23.Cl (centres unmarked)	< 0.006 µg/mL
CC1Cc2c(N3CCOCC3)c(F)cc3c(=O)c(C(=O)O)cn1c23 (centres unmarked)	0.05 µg/mL
CC1CCc2c(N3CCCCC3)c(F)cc3c(=O)c(C(=O)O)cn1c23 (centres unmarked)	1.56 µg/mL
CC1Cc2c(N3CCCC3)c(F)cc3c(=O)c(C(=O)O)cn1c23 (centres unmarked)	0.05 µg/mL

Now consider a different molecule.
Lab book: MIC of CC1CCc2c(N3CCOCC3)c(F)cc3c(=O)c(C(=O)O)cn1c23 (centres unmarked) noted as 0.05 µg/mL

* * *

tested on: Pseudomonas aeruginosa E-2; assay: Minimum inhibitory concentration, serial dilution method on agar plate; assay type: cell-based; conditions: Pseudomonas aeruginosa, E2, 1×10^8 cells/ml; read-out: Minimum Inhibitory Concentration
experimental_readout: MIC (µg/mL)
One number for each entry, in µg/mL.

Consider the reported MIC for these compounds:
CC1Cc2c(N3CCCC3)c(F)cc3c(=O)c(C(=O)O)cn1c23 (centres unmarked)	1.56
CC1CCc2c(N3CCC(N(C)C)CC3)c(F)cc3c(=O)c(C(=O)O)cn1c23 (centres unmarked)	6.25

For every record below, what is its MIC?
1. CC1CCc2c(N3CCC(O)CC3)c(F)cc3c(=O)c(C(=O)O)cn1c23 (centres unmarked)
2. CC(=O)OC1CCN(c2c(F)cc3c(=O)c(C(=O)O)cn4c3c2CCC4C)CC1 (centres unmarked)
3. CC1CCc2c(N3CCOCC3)c(F)cc3c(=O)c(C(=O)O)cn1c23 (centres unmarked)

Result block:
6.25
6.25
6.25

Below is a list of compounds. For each, state its recorded MIC.
1. CC1CCc2c(N3CCCCC3)c(F)cc3c(=O)c(C(=O)O)cn1c23 (centres unmarked)
2. CC1Cc2c(N3CCN(C(F)(F)F)CC3)c(F)cc3c(=O)c(C(=O)O)cn1c23.Cl (centres unmarked)
3. CC1Cc2c(N3CCOCC3)c(F)cc3c(=O)c(C(=O)O)cn1c23 (centres unmarked)

Result block:
1: 25; 2: 0.39; 3: 1.56
